Origin of the recorded values: patent US5202315A

# assay.summary: In-vivo absorbency (plasma concentrations & pharmacokinetic parameters)
# Parameters: species or system SD rat (male)
# applied.conditions: plasma; 60 min; SD male rat, iv 20 mg/kg; read-out: Plasma Conc.
Overview of reported concentration at 1 h across a group of compounds:

{"compound": "C[n+]1c(N)cc(N)nc1SCC1=C(C(=O)[O-])N2C(=O)C(NC(=O)/C(=N\\OC(C)(C)C(=O)O)c3csc(N)n3)[C@H]2SC1 (some centres unmarked)", "concentration at 1 h (ng/mL)": 7700}
{"compound": "Cc1c(N)nc(SCC2=C(C(=O)[O-])N3C(=O)C(NC(=O)/C(=N\\OC(C)(C)C(=O)O)c4csc(N)n4)C3SC2)[n+](C)c1N (centres unmarked)", "concentration at 1 h (ng/mL)": 9600}
{"compound": "Cc1c(N)nc(SCC2=C(C(=O)[O-])N3C(=O)C(NC(=O)/C(=N\\OC(C)(C)C(=O)O)c4csc(N)n4)C3SC2)[n+](N)c1N (centres unmarked)", "concentration at 1 h (ng/mL)": 7800}
{"compound": "CC[n+]1c(N)cc(N)nc1SCC1=C(C(=O)[O-])N2C(=O)C(NC(=O)/C(=N\\OC(C)C(=O)O)c3csc(N)n3)C2SC1 (centres unmarked)", "concentration at 1 h (ng/mL)": 9700}
{"compound": "C[n+]1c(N)cc(N)nc1SCC1=C(C(=O)[O-])N2C(=O)C(NC(=O)/C(=N\\OCC(=O)O)c3csc(N)n3)C2SC1 (centres unmarked)", "concentration at 1 h (ng/mL)": 8100}
